Reference for the values: PubChem BioAssay (EPA / NIEHS)

test: ATG_NF_kB_CIS: Attagene CIS-FACTORIAL HepG2 Assay for human Nuclear Factor Kappa B (NF-kB) (AID 2282991); settings: HepG2 Attagene cis-factorial NF-kB reporter mRNA; actives raise or lower the signal
Calls of active or inactive are those of the source. The calls were made as follows: active = hit-call score of the fitted dose curve at least 0.9, where 1 is the maximum; inactive = score below 0.9.
Allowed answers: active, inactive

Field: example entries. Status: answers known.
| Molecule | Group Label |
| --- | --- |
| CCCCCOC(=O)CCC | inactive |
| COc1nc(C)nc(N)n1 | inactive |
| CC(C)(N)CO | inactive |
| Fc1c(F)c(F)c(Br)c(F)c1F | inactive |

## Input Assay result, entry "C=CC(C)(C)O" — outcome?
## Output inactive

## Input Assay result, entry "CN(C)c1ccc(O)c2c1C[C@H]1C[C@H]3[C@H](N(C)C)C(=O)C(C(N)=O)=C(O)[C@@]3(O)C(=O)C1=C2O" — outcome?
## Output inactive

## Input Assay result, entry CCCCC(CC)COC(=O)/C=C\C(=O)OCC(CC)CCCC (stereo not drawn) — outcome?
## Output active

## Input Assay result, entry "C=C(C)C(=O)O[C@H]1C[C@@H]2CC[C@@]1(C)C2(C)C" — outcome?
## Output inactive
